- experimental.protocol: protein stability index of a GFP-peptide fusion (GPS, HEK-293T) (PSI 1-6); higher = more stable;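 further: 24-mer peptide tiles fused after GFP, lentivirally expressed, FACS-sorted into six equal bins by GFP/DsRed ratio, decoded by Illumina sequencing, PSI is the read-weighted mean bin number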
- assay.context: treatment: MLN4924 1 uM, 8 h; c terminus: a fixed tail appended
assay.readout: protein stability index
Answers are plain numbers.

Some sequences with known protein stability index results, for comparison:
- ordered.residues: "SALGRQRLQDISSLPLPQSLKNYL [SPSB4]"
  protein stability index: 3.27
- ordered.residues: "DHSFSLELGSEVDITEGDRKPDYT [ATF4]"
  protein stability index: 5.34
- ordered.residues: "MALTPVVVTLWYRAPEVLLQSTYA [CDK4]"
  protein stability index: 3.06

// each listed sequence needs a value for protein stability index
1. LVEDMVSQEEAQGLPSSELDAVEN [ZNF24]
2. LRDGGGLTPLELLLRQLGRDAGAT [ANKRD9]
3. IIKQLQKGVQQKRPSEAQSVILRR [DENND6A]
4. GVCQSMCHDKYTKIFNDFKDRMKS [ZMYND11]

1: 5.43; 2: 2.58; 3: 2.9; 4: 2.92

// each listed sequence needs a value for protein stability index
1. TGIEGNWGRLLEQVGTMALWASQR [ZBED2]
2. GGYEKASKRMTFQMPKFDLGPLLS [MYOZ1]

1. 2.48
2. 2.64

// each listed sequence needs a value for protein stability index
1. PLVYKAIQQGINAVNQEAMNNAQR [ACSBG2]
2. KSISPWKSPPQLRQFLPEEFMKTL [DENND6A]
3. WEELLTMKVEAKSHLQWQESRLKR [ZSCAN9]
4. YRFASAGDDGIVVVWNAQTGEKLL [WDR41]

1. 3.45
2. 2.61
3. 3.59
4. 2.75

====

- experimental.protocol: protein stability index of a GFP-peptide fusion (GPS, HEK-293T) (PSI 1-6); higher = more stable
- assay.context: treatment: DMSO; c terminus: a fixed tail appended
Kindly state protein stability index for each of the entries shown.

Some sequences with known protein stability index results, for comparison:
- ordered.residues: "TAPEEVPKVSDQALVSAHSEWQRK [DMRTC1]"
  protein stability index: 4.88
- ordered.residues: "QRVLFSGSSDHSVIMWDIGGRKGT [WDFY2]"
  protein stability index: 2.8
- ordered.residues: "FSLMVTFPDVPLGIFLFCVCVIAI [TMEM175]"
  protein stability index: 3.37
- ordered.residues: "RGLVGVGEASYSTIAPTLIADLFV [SPNS1]"
  protein stability index: 2.29
- ordered.residues: "KSALGAMGQWQLEVGDPAPLGAGN [DPCD]"
  protein stability index: 3.98
- ordered.residues: "EQAPAPGEATAAPAPLCGGPSAEA [TBX6]"
  protein stability index: 5.5
- ordered.residues: "LSCLGQQQQEPPLAMGTVSLGQLP [PLAGL1]"
  protein stability index: 3.75
- ordered.residues: "AKSRAEAALEEESRQRQSRMEKGE [SMARCE1]"
  protein stability index: 5.55

// each listed sequence needs a value for protein stability index
1. AGGQTRLQASDRYRDLAGGTGRSA [FCHSD1]
2. SPNPFPEISRGEYLYTYDSQITDS [ZNF8]
3. GVVHPSNEVLSSDILPRWAIIGWL [INTS3]
4. SPPGSTKRRKSMSGASPKESTNPE [CDC25A]
5. FESHDLLRKGFSCVKNELLPSHPL [POMP]

4.25
4.08
2.13
5.47
2.92

====

- experimental.protocol: protein stability index of a GFP-peptide fusion (GPS, HEK-293T) (PSI 1-6); higher = more stable
- assay.context: treatment: MLN4924 1 uM, 8 h; c terminus: a fixed tail appended
Label rule met when protein stability index is at or above 3; otherwise label rule not met.

- ordered.residues: "DFLLRAASFDVCESVDEAGGSGPA [RHOBTB2]"
  class.name: "rule met"
- ordered.residues: "PGPSWVRGSGPSVLSRLQDAAVVR [ALKBH7]"
  class.name: "rule met"
- ordered.residues: "ISLVKREHDFLDRDAIEALCRRLN [DLC1]"
  class.name: "rule not met"
- ordered.residues: "RKQRRRERWLQKQGKYSGVGLLDH [RNF180]"
  class.name: "rule met"
- ordered.residues: "HELMLRFKDEYKSENIKLREENEK [CCDC89]"
  class.name: "rule met"

Given EKPIGSCVTNPCGPRSRCGPCNTF [KRT33B] , state whether its protein stability index is at least 3.
rule not met

Given DRVGTIKSKVVGDRENGSDNLPSS [TPD52L2] , state whether its protein stability index is at least 3.
rule met

Given INQLTFIMDANQTYLVSERLEREE [FAF2] , state whether its protein stability index is at least 3.
rule met

Given ASGSVLRLVDAVLGAEIRNGMAII [HDAC6] , state whether its protein stability index is at least 3.
rule not met

Given ITALLNVSRRTSEACMTHLHYKWI [DUSP5] , state whether its protein stability index is at least 3.
rule not met

====

Kindly state protein stability index for each of the entries shown.
- experimental.protocol: protein stability index of a GFP-peptide fusion (GPS, HEK-293T) (PSI 1-6); higher = more stable
- assay.context: treatment: DMSO; c terminus: a fixed tail appended
One number for each entry.

- ordered.residues: "QESDQTEEHESGIEQFSESHAIHV [IQUB]"
  protein stability index: 5.34

// each listed sequence needs a value for protein stability index
1. YPDAEDPQLGLDGPGEPDVRDGFS [PSD2]
2. VKILEPKTKEVQHNCQLHRISFCA [GULP1]

1: 5.51; 2: 2.33

====

- experimental.protocol: protein stability index of a GFP-peptide fusion (GPS, HEK-293T) (PSI 1-6); higher = more stable
- assay.context: treatment: MLN4924 1 uM, 8 h; c terminus: a fixed tail appended
assay.readout: protein stability index
One number for each entry.

Some sequences with known protein stability index results, for comparison:
- ordered.residues: "PVRAAASSPVTTLTQTMHDLAGLG [CDC25B]"
  reported.value: 3.93
- ordered.residues: "KEMFTVGCCVFAFLVGLLFVQRSG [SLC6A17]"
  reported.value: 3.13
- ordered.residues: "GSCSTEVEKETQEKMTILQTYFRQ [ATP6V1G1]"
  reported.value: 2.62
- ordered.residues: "FPPFFDDNPFGIYQKILAGKIDFP [PRKX]"
  reported.value: 2.27
- ordered.residues: "DVTGSVKSERRNLLEDDSDEEEDF [VAMP4]"
  reported.value: 5.66
- ordered.residues: "DITQEEYGEFYKSLTNDWEDHLAV [HSP90AB1]"
  reported.value: 4.01

// each listed sequence needs a value for protein stability index
1. YDITKEETFSTLKNWVKELRQHGP [RAB22A]
2. GPVPGTPGLPGSTGNPKSEEPEVP [SPNS1]
3. ENCLSASAAQTDPTTGYRRLLRFS [LOXL2]
4. YGYLPEDKVLGTFEFDETSFWNSS [KLHDC2]
5. NTPFQLSIAPPEAEGVVLSDSPDA [PPTC7]
6. RLQVVKLLAKMFGAKDSELASQNK [PDS5B]
7. SRGACTSHDPQSSRGSRRRRRQRS [KCNA4]

[3.24, 5.3, 3.35, 2.98, 5.37, 2.7, 5.53]

====

- experimental.protocol: protein stability index of a GFP-peptide fusion (GPS, HEK-293T) (PSI 1-6); higher = more stable
- assay.context: treatment: MLN4924 1 uM, 8 h; c terminus: a fixed tail appended
assay.readout: protein stability index
Answers are plain numbers.

Some sequences with known protein stability index results, for comparison:
- ordered.residues: "TIENILDNDPRDLIGDFSKGYLFH [CDC25A]"
  protein stability index: 2.69
- ordered.residues: "KGHNTPKDIAHFWELGGGTSLLDL [DYNC2LI1]"
  protein stability index: 3.2
- ordered.residues: "RSWFPSAPGSASSSKVSGVLKKLA [YJU2B]"
  protein stability index: 2.5

// each listed sequence needs a value for protein stability index
1. WASCLQYDFDTQYAFVGDYSGQIT [WDFY1]
2. VRYLNAYTGIVLLRCRKEFYQLVW [POP5]
3. KCGIHSMFPLHLAALNAHSDCCRK [ANKRD44]

1: 2.2; 2: 2.46; 3: 2.62

// each listed sequence needs a value for protein stability index
1. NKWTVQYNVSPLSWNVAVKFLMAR [PTPN9]
2. GSAAPGSPLAADPACLGQPHTPGK [FOXJ1]
3. LQDVIMQVADVPEKPRVPAFACQV [ZNF511]
4. QEIIKTTEQLIEAVNNGDFEAYAK [CAMK2B]
5. MDIESLSVFTEPNRHFYREMQSFS [FBXO33]
6. TSEKLGEWNEKVTQSDLYKKTQET [TPD52L2]
7. PTGLLALQQIADFMTTNVPNVYPA [ADD1]
8. TNTRRGSRAPCKVQGLEGIKMAMV [NEK8]

2.15
5.4
2.69
4.26
2.3
5.1
2.14
2.32

// each listed sequence needs a value for protein stability index
1. IKRGDILPPEKGREVAKELGLPYY [RHOBTB1]
2. LVTIARKASLWQFLSSEKQICGTH [TRIM43]
3. QNDNAPEILYPALPTDGSTGVELA [PCDHGA10]
4. MMEKILGPIPSHMIHRTRKQKYFY [CLK3]
5. SGAAASLNVDAAVQQWLQKGTPAS [CHIT1]
6. ACKSLQTRQNGIQTNKPALRAVRQ [STX5]
7. NYLFMGDYVDRGYYSVETVTLLVA [PPP2CA]
8. GCCVFAFLVGLLFVQRSGNYFVTM [SLC6A17]

1: 3.37; 2: 2.17; 3: 5.2; 4: 2.12; 5: 4.01; 6: 3.95; 7: 2.82; 8: 3.12
